Reported % activity index, A. flavus values are given for each entry in this list.
- Tested on: Aspergillus flavus
- protocol-description: Agar well diffusion method
- test-context: relative to clotrimazole
Value expressed in %; do not type the unit.

compound="COCCOC(=O)C1=C(C)NC(C)=C(C(=O)OC)C1c1cccc(C#N)c1 (racemic)" reported_metric="% activity index, A. flavus" display_unit=% val=60
compound="CCOC(=O)C1=C(C)NC(C)=C(C(=O)OCCOC)C1c1cccc(C#N)c1 (racemic)" reported_metric="% activity index, A. flavus" display_unit=% val=72
compound="COC(=O)C1=C(C)NC(C)=C(C(=O)OC(C)C)C1c1cccc(C#N)c1 (racemic)" reported_metric="% activity index, A. flavus" display_unit=% val=88

Here is the next item to consider.
So what does the record say about % activity index, A. flavus for CCOC(=O)C1=C(C)NC(C)=C(C(=O)OC)C1c1cccc(C#N)c1 (racemic) ? 96

----------
- System: NCI 60 cancer cell lines
- protocol-description: NCI single dose (10 µM) SRB screen, mean over panel
- Type: cell-based, human
- test-context: mean over 60 cell lines, 48 h
Recorded Mean GI% values for a group of compounds are listed next.
Hi! Could you send only the number? It should be in %, unit omitted.

Use these answered entries as a reference point.
compound="CCOC(=O)C1=C(C)NC(C)=C(C(=O)OCC)C1c1cccc(C#N)c1 [Compound 1b]" display_unit=% val=8
compound="CC1=C(C(=O)OC(C)C)C(c2cccc(C#N)c2)C(C(=O)OC(C)C)=C(C)N1 [Compound 1c]" display_unit=% val=6
compound="CCOC(=O)C1=C(C)NC(C)=C(C(=O)OCC(C)C)C1c1cccc(C#N)c1 (racemic) [Compound 2i]" display_unit=% val=9
compound="CCOC(=O)C1=C(C)NC(C)=C(C(=O)OC(C)(C)C)C1c1cccc(C#N)c1 (racemic) [Compound 2j]" display_unit=% val=4
compound="COC(=O)C1=C(C)NC(C)=C(C(=O)OCc2ccccc2)C1c1cccc(C#N)c1 (racemic) [Compound 2e]" display_unit=% val=28
compound="COC(=O)C1=C(C)NC(C)=C(C(=O)OCC(C)C)C1c1cccc(C#N)c1 (racemic) [Compound 2b]" display_unit=% val=5
compound="CCOC(=O)C1=C(C)NC(C)=C(C(=O)OCCOC)C1c1cccc(C#N)c1 (racemic) [Compound 2k]" display_unit=% val=−1

Consider now this further compound.
Hi! What's the reported Mean GI% for COCCOC(=O)C1=C(C)NC(C)=C(C(=O)OCCOC)C1c1cccc(C#N)c1 [Compound 1f] on NCI 60 cancer cell lines? −1

----------
- System: HT29
- protocol-description: NCI single dose (10 µM) SRB screen
- Type: cell-based, human
- test-context: colon cancer, 48 h
reported-metric: GI% HT29

What value of GI% HT29 has been reported for the following molecule? CC1=C(C(=O)OCc2ccccc2)C(c2cccc(C#N)c2)C(C(=O)OCc2ccccc2)=C(C)N1 48%

----------
- System: Aspergillus flavus
- protocol-description: Agar well diffusion method
- test-context: relative to clotrimazole
reported-metric: % activity index, A. flavus (%)
# unit: % | format: bare number

A selection of reference data follows.
molecule="CCOC(=O)C1=C(C)NC(C)=C(C(=O)OC(C)(C)C)C1c1cccc(C#N)c1 (racemic)" reported_metric="% activity index, A. flavus" val=80
molecule=CC1=C(C(=O)OC(C)C)C(c2cccc(C#N)c2)C(C(=O)OC(C)C)=C(C)N1 reported_metric="% activity index, A. flavus" val=52

Now take the following molecule into account.
What % activity index, A. flavus value was documented for this molecule, Clc1ccccc1C(c1ccccc1)(c1ccccc1)n1ccnc1 [Clotrimazole, reference compound] ? 100

----------
- System: UACC-62
- protocol-description: NCI single dose (10 µM) SRB screen
- Assay type: cell-based, human
- test-context: melanoma, 48 h
# GI% UACC-62 per record follows
Answer in %, number only, no unit symbol.

The cases that follow already have their GI% UACC-62 on record.
compound="COC(=O)C1=C(C)NC(C)=C(C(=O)OCC(C)C)C1c1cccc(C#N)c1 (racemic)" val=21
compound=CC1=C(C(=O)OC(C)(C)C)C(c2cccc(C#N)c2)C(C(=O)OC(C)(C)C)=C(C)N1 val=26

Continue with the next compound.
Given the compound CC1=C(C(=O)OC(C)C)C(c2cccc(C#N)c2)C(C(=O)OC(C)C)=C(C)N1 , what is its reported GI% UACC-62? 14

----------
- System: EKVX
- protocol-description: NCI single dose (10 µM) SRB screen
- Assay type: cell-based, human
- test-context: non-small cell lung cancer, 48 h
reported-metric: GI% EKVX (%)
Express your answer in %, writing the number without its unit.

compound="CCOC(=O)C1=C(C)NC(C)=C(C(=O)OCC(C)C)C1c1cccc(C#N)c1 (racemic)" tested_target=EKVX val=29
compound="COC(=O)C1=C(C)NC(C)=C(C(=O)OCC(C)C)C1c1cccc(C#N)c1 (racemic)" tested_target=EKVX val=12
compound=CC1=C(C(=O)OCC(C)C)C(c2cccc(C#N)c2)C(C(=O)OCC(C)C)=C(C)N1 tested_target=EKVX val=27

Query: GI% EKVX; subject: COC(=O)C1=C(C)NC(C)=C(C(=O)OCc2ccccc2)C1c1cccc(C#N)c1 (racemic) 26

What value of GI% EKVX has been reported for the following compound? CCOC(=O)C1=C(C)NC(C)=C(C(=O)OC(C)(C)C)C1c1cccc(C#N)c1 (racemic) 10

Which measured GI% EKVX value corresponds to CC1=C(C(=O)OC(C)(C)C)C(c2cccc(C#N)c2)C(C(=O)OC(C)(C)C)=C(C)N1 ? 20

Fill blank: measured GI% EKVX of the compound CCOC(=O)C1=C(C)NC(C)=C(C(=O)OCc2ccccc2)C1c1cccc(C#N)c1 (racemic) is ____. 62

----------
- System: HT29
- protocol-description: NCI single dose (10 µM) SRB screen
- Assay type: cell-based, human
- test-context: colon cancer, 48 h
reported-metric: GI% HT29

Sample records with GI% HT29:
molecule="CCOC(=O)C1=C(C)NC(C)=C(C(=O)OCc2ccccc2)C1c1cccc(C#N)c1 (racemic)" tested_target=HT29 reported_metric="GI% HT29" val=88%
molecule=CC1=C(C(=O)OCC(C)C)C(c2cccc(C#N)c2)C(C(=O)OCC(C)C)=C(C)N1 tested_target=HT29 reported_metric="GI% HT29" val=12%

Give its GI% HT29 value. Item: CC1=C(C(=O)OC(C)(C)C)C(c2cccc(C#N)c2)C(C(=O)OC(C)(C)C)=C(C)N1 13%

Name the recorded GI% HT29 for COC(=O)C1=C(C)NC(C)=C(C(=O)OCc2ccccc2)C1c1cccc(C#N)c1 (racemic) . 31%

----------
- System: Bacillus subtilis
- protocol-description: Agar well diffusion method
- test-context: relative to ciprofloxacin
Listed here: items and their measured % activity index, B. subtilis.
Please state the figure in %; there is no need to write the unit.

compound="COC(=O)C1=C(C)NC(C)=C(C(=O)OC)C1c1cccc(C#N)c1 [Compound 1a]" reported_metric="% activity index, B. subtilis" val=39.1

Look up % activity index, B. subtilis: COCCOC(=O)C1=C(C)NC(C)=C(C(=O)OCCOC)C1c1cccc(C#N)c1 [Compound 1f] 69.6

----------
- tested-target: BTK (Homo sapiens)
- Sequence (Q06187 whole entry): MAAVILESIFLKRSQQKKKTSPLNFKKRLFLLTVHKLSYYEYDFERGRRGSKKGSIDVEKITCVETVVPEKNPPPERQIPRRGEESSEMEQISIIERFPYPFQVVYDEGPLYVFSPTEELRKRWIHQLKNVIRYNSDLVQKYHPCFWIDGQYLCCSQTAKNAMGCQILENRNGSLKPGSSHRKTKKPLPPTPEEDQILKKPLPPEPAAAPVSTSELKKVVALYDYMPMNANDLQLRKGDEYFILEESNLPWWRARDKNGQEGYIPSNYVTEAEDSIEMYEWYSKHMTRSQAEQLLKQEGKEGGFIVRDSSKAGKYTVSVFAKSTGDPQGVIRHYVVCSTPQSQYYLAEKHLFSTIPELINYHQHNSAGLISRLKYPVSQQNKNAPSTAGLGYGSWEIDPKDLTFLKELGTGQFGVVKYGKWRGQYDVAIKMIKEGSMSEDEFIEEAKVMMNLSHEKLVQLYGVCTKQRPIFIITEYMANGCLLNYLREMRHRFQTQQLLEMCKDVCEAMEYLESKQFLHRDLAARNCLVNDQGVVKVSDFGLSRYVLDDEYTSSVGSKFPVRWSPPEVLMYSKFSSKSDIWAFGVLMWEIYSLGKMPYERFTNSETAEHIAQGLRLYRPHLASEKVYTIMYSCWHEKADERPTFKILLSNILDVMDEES
- protocol-description: BTK inhibitory activity
- Type: biochemical
- test-context: read-out: BTK IC50 ± SD
Documented IC50 across a set of molecules
Please respond with the number in nM and leave the unit unwritten.

// query IC50 value for entry CCOC(=O)C1=C(C)NC(C)=C(C(=O)OCc2ccccc2)C1c1cccc(C#N)c1 (racemic) [Compound 2l] 63.8

Would you mind telling me what IC50 value was observed for COC(=O)C1=C(C)NC(C)=C(C(=O)OCc2ccccc2)C1c1cccc(C#N)c1 (racemic) [Compound 2e] ? 82.1

Which IC50 is reported for this molecule? CC1=C(C(=O)OCc2ccccc2)C(c2cccc(C#N)c2)C(C(=O)OCc2ccccc2)=C(C)N1 [Compound 1g] 60.3

----------
- System: Bacillus subtilis
- protocol-description: Agar well diffusion method
- test-context: relative to ciprofloxacin
Some molecules, each annotated with its measured % activity index, B. subtilis.

Example entries and their recorded answers appear below.
molecule="CCOC(=O)C1=C(C)NC(C)=C(C(=O)OC(C)C)C1c1cccc(C#N)c1 (racemic)" val=34.8%
molecule="CCOC(=O)C1=C(C)NC(C)=C(C(=O)OCCOC)C1c1cccc(C#N)c1 (racemic)" val=56.5%
molecule=CC1=C(C(=O)OC(C)C)C(c2cccc(C#N)c2)C(C(=O)OC(C)C)=C(C)N1 val=26.1%

Next up:
What % activity index, B. subtilis value was documented for this molecule, O=C(O)c1cn(C2CC2)c2cc(N3CCNCC3)c(F)cc2c1=O [Ciprofloxacin, reference compound] ? 100%

----------
- tested-target: EGFR (Homo sapiens)
- Sequence (P00533 25-1210): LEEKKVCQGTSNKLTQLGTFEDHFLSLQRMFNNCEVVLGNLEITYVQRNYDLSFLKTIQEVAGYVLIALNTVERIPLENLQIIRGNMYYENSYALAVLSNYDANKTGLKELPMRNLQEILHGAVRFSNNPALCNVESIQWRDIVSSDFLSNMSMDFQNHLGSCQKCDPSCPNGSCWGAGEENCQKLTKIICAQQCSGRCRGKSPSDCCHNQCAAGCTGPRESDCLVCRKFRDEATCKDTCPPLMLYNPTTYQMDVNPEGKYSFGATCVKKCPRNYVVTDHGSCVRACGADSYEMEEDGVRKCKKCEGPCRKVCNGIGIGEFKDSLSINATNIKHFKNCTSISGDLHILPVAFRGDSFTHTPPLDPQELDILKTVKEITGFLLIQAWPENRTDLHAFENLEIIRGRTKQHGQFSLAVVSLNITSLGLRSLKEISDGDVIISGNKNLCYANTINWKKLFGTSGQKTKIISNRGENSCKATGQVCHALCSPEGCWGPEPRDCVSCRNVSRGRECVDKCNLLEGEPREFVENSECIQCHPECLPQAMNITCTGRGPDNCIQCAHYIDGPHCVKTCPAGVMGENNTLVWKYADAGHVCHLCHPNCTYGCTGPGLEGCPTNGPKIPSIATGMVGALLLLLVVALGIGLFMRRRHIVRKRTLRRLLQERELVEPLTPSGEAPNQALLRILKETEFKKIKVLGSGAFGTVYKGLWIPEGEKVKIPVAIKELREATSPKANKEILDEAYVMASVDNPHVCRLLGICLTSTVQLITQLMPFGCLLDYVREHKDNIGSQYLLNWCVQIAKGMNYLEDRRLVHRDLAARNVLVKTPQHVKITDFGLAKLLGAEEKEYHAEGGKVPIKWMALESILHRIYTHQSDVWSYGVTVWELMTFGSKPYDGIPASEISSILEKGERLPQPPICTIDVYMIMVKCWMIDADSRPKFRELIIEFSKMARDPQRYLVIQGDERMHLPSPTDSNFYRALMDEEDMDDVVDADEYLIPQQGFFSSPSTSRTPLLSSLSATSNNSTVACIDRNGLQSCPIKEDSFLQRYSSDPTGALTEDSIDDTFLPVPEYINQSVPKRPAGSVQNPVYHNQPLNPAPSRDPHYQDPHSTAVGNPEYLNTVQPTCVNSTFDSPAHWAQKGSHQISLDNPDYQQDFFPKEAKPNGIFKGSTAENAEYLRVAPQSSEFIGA
- protocol-description: EGFR kinase inhibitory activity
- Type: biochemical
- test-context: read-out: EGFR IC50 ± SD
reported-metric: IC50
Could you kindly put the unit after your number?

molecule=CC1=C(C(=O)OCc2ccccc2)C(c2cccc(C#N)c2)C(C(=O)OCc2ccccc2)=C(C)N1 val="62.2 nM"
molecule="COC(=O)C1=C(C)NC(C)=C(C(=O)OCc2ccccc2)C1c1cccc(C#N)c1 (racemic)" val="80.4 nM"

Lab note: next molecule to report on.
Would you mind telling me what IC50 value was observed for CCOC(=O)C1=C(C)NC(C)=C(C(=O)OCc2ccccc2)C1c1cccc(C#N)c1 (racemic) ? 75.2 nM
